Entry source: the supplement of paper PMC11562712

test: first-order primary biodegradation rate constant k (sorption-corrected, fDis-corrected) (d-1); higher = faster biodegradation; details: river segment: Spain (ES) C_Contam; incubation temperature 24 °C
Rule: first-order primary biodegradation rate constant k under 0.2 gives false, otherwise true.

Query: Confirm if first-order primary biodegradation rate constant k reported for the compound COCCc1ccc(OCC(O)CNC(C)C)cc1 (stereo not given) is 0.2 or above.
Reply: true

Query: Can CC(=O)NC[C@H]1CN(c2ccc(N3CCOCC3)c(F)c2)C(=O)O1 be said to have first-order primary biodegradation rate constant k at or above 0.2?
Reply: false

Query: Reported first-order primary biodegradation rate constant k reaches at least 0.2 for NC(=O)N1c2ccccc2C=Cc2ccccc21 [Carbamazepine] ?
Reply: false

Query: In plain terms: is recorded first-order primary biodegradation rate constant k at least 0.2 for CC(C)NCC(O)c1ccc(NS(C)(=O)=O)cc1 (stereo not given) ?
Reply: true

Query: Kindly determine if first-order primary biodegradation rate constant k recorded for NC(=O)c1cn(Cc2c(F)cccc2F)nn1 [Rufinamide] is above or exactly 0.2.
Reply: true

* * *

test: first-order primary biodegradation rate constant k (sorption-corrected, fDis-corrected) (d-1); higher = faster biodegradation; conditions: river segment: Germany (DE) H_Contam; incubation temperature 24 °C
Hi there, I'd appreciate the recorded first-order primary biodegradation rate constant k for every entry that follows.
Lab note: jot down the number only; don't add units.

// first-order primary biodegradation rate constant k value for CNC(=C[N+](=O)[O-])NCCSCc1ccc(CN(C)C)o1 : 0.498

first-order primary biodegradation rate constant k in this record for CC(=O)NC[C@H]1CN(c2ccc(N3CCOCC3)c(F)c2)C(=O)O1 : 0.0119

Recorded first-order primary biodegradation rate constant k (compound NS(=O)(=O)c1cc(C(=O)O)c(NCc2ccco2)cc1Cl [Furosemide] ): 0.0829

Measured first-order primary biodegradation rate constant k of COc1cc(Cc2cnc(N)nc2N)cc(OC)c1OC : 0.173

Note to self: first-order primary biodegradation rate constant k recorded for CC1(C)C[C@@H]1C(=O)N/C(=C\CCCCSC[C@H](N)C(=O)O)C(=O)O was 5.75

Lab note: measured first-order primary biodegradation rate constant k of CCCCCCCCCCN was 11.8

* * *

assay: first-order primary biodegradation rate constant k (sorption-corrected, fDis-corrected) (d-1); higher = faster biodegradation; conditions: river segment: Spain (ES) B_Contam; incubation temperature 24 °C
Binary call on first-order primary biodegradation rate constant k: true (1) from 0.1 upward, false (0) beneath that.

Query: Does the compound CC(C)(Oc1ccc(Cl)cc1)C(=O)O [Clofibric acid] have recorded first-order primary biodegradation rate constant k that is 0.1 or more?
Reply: false (0)

Query: In plain terms: is recorded first-order primary biodegradation rate constant k at least 0.1 for CC(C)N(C(=O)COc1nnc(C(F)(F)F)s1)c1ccc(F)cc1 [Flufenacet] ?
Reply: false (0)

Query: Does first-order primary biodegradation rate constant k meet or surpass 0.1 for CC(C)N(C(=O)CCl)c1ccccc1 [Propachlor] ?
Reply: true (1)

Query: Does the reported first-order primary biodegradation rate constant k for Cc1ccc2n[nH]nc2c1 [5-Methylbenzotriazole] fall at or above the 0.1 mark?
Reply: false (0)

Query: Hi team, for CC(C)NCC(O)c1ccc(NS(C)(=O)=O)cc1 (stereo not given) [Sotalol] , is the recorded first-order primary biodegradation rate constant k at or above 0.1?
Reply: true (1)

Query: For this compound, is measured first-order primary biodegradation rate constant k 0.1 or higher? CC(C)NCC(O)COc1cccc2ccccc12 (stereo not given) [Propranolol]
Reply: true (1)

Query: State whether the measured first-order primary biodegradation rate constant k reaches 0.1, counting equality as reaching it, for NC(=O)c1cn(Cc2c(F)cccc2F)nn1 [Rufinamide]
Reply: true (1)

Query: Has c1ccc([C@H]2CN3CCSC3=N2)cc1 [Levamisole] a recorded first-order primary biodegradation rate constant k greater than or equal to 0.1?
Reply: false (0)

Query: I'd appreciate it if you could say whether NS(=O)(=O)c1cc(C(=O)O)c(NCc2ccco2)cc1Cl [Furosemide] has first-order primary biodegradation rate constant k at least equal to 0.1.
Reply: true (1)

Query: Decide: first-order primary biodegradation rate constant k of CCCCc1nc(Cl)c(CO)n1Cc1ccc(-c2ccccc2-c2nnn[nH]2)cc1 [Losartan] >= 0.1?
Reply: true (1)
